The measurements presented in this section are drawn from ChEMBL document CHEMBL4689842.

# Test system: Fibroblast
# testProtocol: Multiplex assay against human fibroblast
# Type: toxicity, cell-based
# details: 48 h, 10 µM, compound concentration 10 uM, replicate 1
Reported Population Normal (%) values follow for various compounds

>  <mol>
COc1cc(-n2cnc3cc(-c4ccc(Cl)cc4)sc3c2=O)ccc1OCCN1CCCC1

>  <Population Normal (%)>
62

$$$$
>  <mol>
Cc1nc(-c2ccc(-c3ccc(C(=O)N4CCc5cc6c(cc54)C4(CCN(C)CC4)CO6)cc3)c(C)c2)no1

>  <Population Normal (%)>
66

$$$$
>  <mol>
Cc1c(-c2ccc(O)cc2)n(Cc2ccc(OCCN3CCCCCC3)cc2)c2ccc(O)cc12

>  <Population Normal (%)>
81

$$$$
>  <mol>
CCn1c(=O)c(-c2ccc(Cl)cc2Cl)cc2cnc(Nc3ccc(N4CCNCC4)c(F)c3)nc21

>  <Population Normal (%)>
32

$$$$
>  <mol>
CC(C)(O)CNc1ncc(-c2ccnc(Nc3ccnc(Cl)c3)n2)c(CC2CC2)n1

>  <Population Normal (%)>
84

$$$$
